target: MAPK13A (Homo sapiens, UniProt O15264); construct: purchased in-house DSF kinase panel (SGC-style construct names; the trailing letter is the construct ID); test: DSF Tm panel; type: binding; conditions: 10 μM compound
Sequence (O15264 whole entry): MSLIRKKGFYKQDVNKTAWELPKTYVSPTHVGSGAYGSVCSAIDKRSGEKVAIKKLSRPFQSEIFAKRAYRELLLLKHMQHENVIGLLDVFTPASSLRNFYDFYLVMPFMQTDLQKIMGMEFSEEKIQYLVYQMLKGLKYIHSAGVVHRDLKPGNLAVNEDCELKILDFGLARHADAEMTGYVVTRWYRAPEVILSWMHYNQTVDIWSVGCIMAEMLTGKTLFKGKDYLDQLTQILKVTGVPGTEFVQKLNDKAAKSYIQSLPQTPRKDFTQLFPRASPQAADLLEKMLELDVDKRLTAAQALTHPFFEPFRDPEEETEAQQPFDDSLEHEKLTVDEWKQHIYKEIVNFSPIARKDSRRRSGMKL
Consider the following molecules and their measured ΔTm at 10 µM readings.
Property measured: ΔTm at 10 µM

* O=C(NCc1ccccc1Cl)Nc1ccc2cc1OCCOCCNc1ccn3ncc-2c3n1 [compound 17] | 0.5 °C
* O=C(NCc1ccc(Cl)cc1)Nc1ccc2cc1OCCOCCNc1ccn3ncc-2c3n1 [compound 19] | 0.6 °C
* COc1cccc(CNC(=O)Nc2ccc3cc2OCCOCCNc2ccn4ncc-3c4n2)c1 [compound 30] | -0.1 °C
* COc1cc(CNC(=O)Nc2ccc3cc2OCCOCCNc2ccn4ncc-3c4n2)ccc1F [compound 33] | -0.3 °C
* Cc1cc(Br)ccc1CNC(=O)Nc1ccc2cc1OCCOCCNc1ccn3ncc-2c3n1 [compound 24] | -0.4 °C
* O=C(NCc1cccc(Cl)c1)Nc1ccc2cc1OCCOCCNc1ccn3ncc-2c3n1 [compound 18] | 0.7 °C
* C[C@H](NC(=O)Nc1ccc2cc1OCCOCCNc1ccn3ncc-2c3n1)c1ccccc1 [compound 34] | -0.3 °C
* O=C(NCc1ccc(C(F)(F)F)cc1)Nc1ccc2cc1OCCOCCNc1ccn3ncc-2c3n1 [compound 28] | -0.5 °C
* Cc1ccc(F)cc1CNC(=O)Nc1ccc2cc1OCCOCCNc1ccn3ncc-2c3n1 [compound 26] | -0.2 °C
* CN1CCN(C(=O)Nc2ccc3cc2OCCOCCNc2ccn4ncc-3c4n2)CC1 [compound 35] | 0.4 °C
* O=C(NCc1ccc(Cl)cc1Cl)Nc1ccc2cc1OCCOCCNc1ccn3ncc-2c3n1 [compound 20] | 0.4 °C
* COc1ccc(CNC(=O)Nc2ccc3cc2OCCOCCNc2ccn4ncc-3c4n2)cc1F [compound 32] | -0.3 °C
* O=C(NCc1ccc(Cl)cc1F)Nc1ccc2cc1OCCOCCNc1ccn3ncc-2c3n1 [compound 21] | 0.6 °C
* COc1ccccc1CNC(=O)Nc1ccc2cc1OCCOCCNc1ccn3ncc-2c3n1 [compound 29] | 0.02 °C
* COc1ccc(CNC(=O)Nc2ccc3cc2OCCOCCNc2ccn4ncc-3c4n2)cc1 [compound 31] | -1.3 °C
* O=C(NCc1ccccc1C(F)(F)F)Nc1ccc2cc1OCCOCCNc1ccn3ncc-2c3n1 [compound 27] | -0.5 °C
* O=C(NCc1ccccc1)Nc1ccc2cc1OCCOCCNc1ccn3ncc-2c3n1 [compound 16] | 0.1 °C
* Cc1cc(Cl)ccc1CNC(=O)Nc1ccc2cc1OCCOCCNc1ccn3ncc-2c3n1 [compound 23] | 0.3 °C

----------
biological target: MSSK1A (Homo sapiens); construct: purchased in-house DSF kinase panel (SGC-style construct names; the trailing letter is the construct ID); experiment: DSF Tm panel; format: binding; settings: 10 μM compound
Sequence (Q9UPE1 79-565): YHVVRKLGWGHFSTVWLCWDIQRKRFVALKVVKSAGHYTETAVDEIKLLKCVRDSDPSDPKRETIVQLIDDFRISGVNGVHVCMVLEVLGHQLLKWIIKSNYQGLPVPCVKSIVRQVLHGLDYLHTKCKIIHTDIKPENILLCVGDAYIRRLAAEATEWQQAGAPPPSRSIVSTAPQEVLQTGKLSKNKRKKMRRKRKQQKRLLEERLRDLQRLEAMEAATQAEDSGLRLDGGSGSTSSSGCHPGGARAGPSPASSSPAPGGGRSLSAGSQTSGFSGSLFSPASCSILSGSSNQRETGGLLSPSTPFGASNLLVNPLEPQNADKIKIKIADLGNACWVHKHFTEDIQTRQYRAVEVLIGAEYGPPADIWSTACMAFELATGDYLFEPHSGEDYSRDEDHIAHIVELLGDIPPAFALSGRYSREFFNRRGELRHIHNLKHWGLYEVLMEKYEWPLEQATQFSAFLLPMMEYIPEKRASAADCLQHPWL
Property measured: ΔTm at 10 µM

- C[C@H](NC(=O)Nc1ccc2cc1OCCOCCNc1ccn3ncc-2c3n1)c1ccccc1: 0.4 °C
- COc1ccc(CNC(=O)Nc2ccc3cc2OCCOCCNc2ccn4ncc-3c4n2)cc1: 0.7 °C
- Cc1ccc(F)cc1CNC(=O)Nc1ccc2cc1OCCOCCNc1ccn3ncc-2c3n1: 0.4 °C
- COc1ccccc1CNC(=O)Nc1ccc2cc1OCCOCCNc1ccn3ncc-2c3n1: 0.5 °C
- COc1cccc(CNC(=O)Nc2ccc3cc2OCCOCCNc2ccn4ncc-3c4n2)c1: 0.4 °C
- O=C(NCc1ccc(C(F)(F)F)cc1)Nc1ccc2cc1OCCOCCNc1ccn3ncc-2c3n1: 0.3 °C
- Cc1cc(Br)ccc1CNC(=O)Nc1ccc2cc1OCCOCCNc1ccn3ncc-2c3n1: 0.2 °C
- COc1ccc(CNC(=O)Nc2ccc3cc2OCCOCCNc2ccn4ncc-3c4n2)cc1F: 0.4 °C
- O=C(NCc1ccccc1C(F)(F)F)Nc1ccc2cc1OCCOCCNc1ccn3ncc-2c3n1: 0.5 °C
- COc1cc(CNC(=O)Nc2ccc3cc2OCCOCCNc2ccn4ncc-3c4n2)ccc1F: 0.4 °C

----------
Target: PLK4A (Homo sapiens, UniProt O00444)
Construct: purchased in-house DSF kinase panel (SGC-style construct names; the trailing letter is the construct ID)
Sequence (O00444 2-275): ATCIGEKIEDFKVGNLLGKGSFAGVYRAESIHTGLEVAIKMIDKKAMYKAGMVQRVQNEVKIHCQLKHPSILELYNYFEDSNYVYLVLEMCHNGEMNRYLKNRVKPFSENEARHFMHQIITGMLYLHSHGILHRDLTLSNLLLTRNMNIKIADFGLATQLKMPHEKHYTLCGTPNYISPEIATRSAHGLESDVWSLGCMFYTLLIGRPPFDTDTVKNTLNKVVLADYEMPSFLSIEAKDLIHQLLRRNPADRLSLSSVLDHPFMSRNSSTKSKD
Assay: DSF Tm panel
Assay type: binding
Settings: 10 μM compound
Method: The synthesized urea-based derivatives were evaluated in a panel of kinases by differential scanning fluorescence (DSF) to investigate their selectivity profile. […] This was also reflected in the overall low selectivity score (S) throughout the series, which is determined by the ratio between the number of kinases that are stabilized above 5 °C and the total number of kinases tested (Figure ). […]
Property measured: ΔTm at 10 µM (°C)

• O=C(NCc1ccccc1)Nc1ccc2cc1OCCOCCNc1ccn3ncc-2c3n1 = 4.1
• CN1CCN(C(=O)Nc2ccc3cc2OCCOCCNc2ccn4ncc-3c4n2)CC1 = 3
• O=C(NCc1ccccc1Cl)Nc1ccc2cc1OCCOCCNc1ccn3ncc-2c3n1 = 3.9
• COc1ccccc1CNC(=O)Nc1ccc2cc1OCCOCCNc1ccn3ncc-2c3n1 = 3
• Cc1cc(Br)ccc1CNC(=O)Nc1ccc2cc1OCCOCCNc1ccn3ncc-2c3n1 = 2.3

----------
molecular target: EPHA7A (Homo sapiens, UniProt Q15375); construct: purchased in-house DSF kinase panel (SGC-style construct names; the trailing letter is the construct ID); test: DSF Tm panel; type: binding; conditions: 10 μM compound
Sequence (Q15375 590-899): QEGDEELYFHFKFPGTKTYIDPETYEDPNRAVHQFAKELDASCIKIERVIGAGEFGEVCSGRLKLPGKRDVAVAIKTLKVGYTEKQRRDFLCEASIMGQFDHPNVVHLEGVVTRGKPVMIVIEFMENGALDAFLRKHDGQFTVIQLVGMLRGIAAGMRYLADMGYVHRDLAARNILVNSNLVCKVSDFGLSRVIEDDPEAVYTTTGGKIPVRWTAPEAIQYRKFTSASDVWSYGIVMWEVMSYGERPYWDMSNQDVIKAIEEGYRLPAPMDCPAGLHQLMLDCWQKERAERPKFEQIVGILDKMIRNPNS
Values of ΔTm at 10 µM greater than or equal to 2 °C map to Fulfilled; values below map to Not fulfilled.

* COc1ccc(CNC(=O)Nc2ccc3cc2OCCOCCNc2ccn4ncc-3c4n2)cc1 [compound 31] | Not fulfilled
* O=C(NCc1ccccc1C(F)(F)F)Nc1ccc2cc1OCCOCCNc1ccn3ncc-2c3n1 [compound 27] | Fulfilled
* COc1cc(CNC(=O)Nc2ccc3cc2OCCOCCNc2ccn4ncc-3c4n2)ccc1F [compound 33] | Not fulfilled
* O=C(NCc1cccc(Cl)c1)Nc1ccc2cc1OCCOCCNc1ccn3ncc-2c3n1 [compound 18] | Not fulfilled
* COc1cccc(CNC(=O)Nc2ccc3cc2OCCOCCNc2ccn4ncc-3c4n2)c1 [compound 30] | Not fulfilled
* O=C(NCc1ccc(Cl)cc1)Nc1ccc2cc1OCCOCCNc1ccn3ncc-2c3n1 [compound 19] | Not fulfilled

----------
target: STK4 (STK4A) (Homo sapiens); construct: purchased in-house DSF kinase panel (SGC-style construct names; the trailing letter is the construct ID); assay: DSF Tm panel; type: binding; settings: 10 μM compound
Sequence (Q13043 1-311): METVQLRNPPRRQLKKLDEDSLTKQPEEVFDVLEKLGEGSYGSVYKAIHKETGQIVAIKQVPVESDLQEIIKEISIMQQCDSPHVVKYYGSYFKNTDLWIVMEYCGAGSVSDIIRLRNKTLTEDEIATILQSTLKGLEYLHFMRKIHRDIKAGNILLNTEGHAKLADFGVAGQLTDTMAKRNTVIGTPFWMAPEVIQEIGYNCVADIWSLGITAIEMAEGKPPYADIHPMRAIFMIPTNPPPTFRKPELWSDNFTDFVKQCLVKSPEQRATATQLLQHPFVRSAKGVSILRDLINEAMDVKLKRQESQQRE
Property measured: ΔTm at 10 µM (°C)

- O=C(NCc1ccccc1)Nc1ccc2cc1OCCOCCNc1ccn3ncc-2c3n1 [compound 16]: 4.9
- COc1ccc(CNC(=O)Nc2ccc3cc2OCCOCCNc2ccn4ncc-3c4n2)cc1F [compound 32]: 4.4
- Cc1cc(Br)ccc1CNC(=O)Nc1ccc2cc1OCCOCCNc1ccn3ncc-2c3n1 [compound 24]: 2.8
- O=C(NCc1cccc(Cl)c1)Nc1ccc2cc1OCCOCCNc1ccn3ncc-2c3n1 [compound 18]: 4.5

----------
Consider the following compounds and their measured ΔTm at 10 µM readings.
Molecular target: GAKA (Homo sapiens, UniProt O14976)
Construct: purchased in-house DSF kinase panel (SGC-style construct names; the trailing letter is the construct ID)
Sequence (O14976 14-351): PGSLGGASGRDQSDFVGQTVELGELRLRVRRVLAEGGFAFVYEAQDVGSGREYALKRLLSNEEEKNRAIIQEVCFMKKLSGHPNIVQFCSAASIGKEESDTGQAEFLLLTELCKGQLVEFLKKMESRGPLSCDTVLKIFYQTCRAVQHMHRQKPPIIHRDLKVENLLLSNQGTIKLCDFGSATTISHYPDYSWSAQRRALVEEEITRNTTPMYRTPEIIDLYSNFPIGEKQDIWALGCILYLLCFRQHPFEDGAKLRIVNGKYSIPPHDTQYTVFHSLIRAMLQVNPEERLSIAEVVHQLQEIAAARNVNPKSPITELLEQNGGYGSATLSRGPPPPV
Assay: DSF Tm panel
Assay type: binding
Conditions: 10 μM compound
Procedure: The synthesized urea-based derivatives were evaluated in a panel of kinases by differential scanning fluorescence (DSF) to investigate their selectivity profile. […] This was also reflected in the overall low selectivity score (S) throughout the series, which is determined by the ratio between the number of kinases that are stabilized above 5 °C and the total number of kinases tested (Figure ). […]
Property measured: ΔTm at 10 µM (°C)

• O=C(NCc1ccc(Cl)cc1Cl)Nc1ccc2cc1OCCOCCNc1ccn3ncc-2c3n1 = 2.4
• COc1ccc(CNC(=O)Nc2ccc3cc2OCCOCCNc2ccn4ncc-3c4n2)cc1F = 6
• O=C(NCc1ccc(Cl)cc1F)Nc1ccc2cc1OCCOCCNc1ccn3ncc-2c3n1 = 3.9
• C[C@H](NC(=O)Nc1ccc2cc1OCCOCCNc1ccn3ncc-2c3n1)c1ccccc1 = 5.7
• O=C(NCc1ccccc1C(F)(F)F)Nc1ccc2cc1OCCOCCNc1ccn3ncc-2c3n1 = 5.4
• COc1ccccc1CNC(=O)Nc1ccc2cc1OCCOCCNc1ccn3ncc-2c3n1 = 4.5
• Cc1cc(Br)ccc1CNC(=O)Nc1ccc2cc1OCCOCCNc1ccn3ncc-2c3n1 = 5.9
• COc1cc(CNC(=O)Nc2ccc3cc2OCCOCCNc2ccn4ncc-3c4n2)ccc1F = 6.2

FYI, the data here is from paper PMC12621043.
